Data credit: ChEMBL document CHEMBL2157924

target: Glucagon-like peptide 1 receptor (Rattus norvegicus) (UniProt P32301); assay: Inhibition of [125I]GLP1 (7-36) amide binding to rat GLP1R expressed in HEK293 cells relative to untreated control; type: cell-based; parameters: concentration or dose not given beside the values; conditions: concentration not given here
MEASURE: inhibition (%)
Note: unit % is implicit; provide only the numeric part.

Query COc1cc([C@H]2[C@](NC(=O)c3ccc(NC(=O)OC(C)(C)C)cc3)(C(=O)O)[C@H](c3ccc(OC(=O)c4cccs4)c(OC)c3)[C@@]2(NC(=O)c2ccc(NC(=O)OC(C)(C)C)cc2)C(=O)O)ccc1OC(=O)c1cccs1 on Glucagon-like peptide 1 receptor (Rattus norvegicus) (UniProt P32301); inhibition returned: 42

====

target: UniProtKB P32301; assay: Agonist activity at rat GLP1R expressed in HEK293 cells assessed as stimulation of cAMP levels incubated for 6 hrs by multiple response element/cAMP response element (MRE/CRE)-driven reporter gene assay relative to 10 nM GLP1; type: functional, cell-based
MEASURE: Efficacy (%)

(P) COc1cc([C@H]2[C@](NC(=O)c3ccc(NC(=O)C(C)C)cc3)(C(=O)O)[C@@H](c3ccc(OC(=O)c4cccs4)c(OC)c3)[C@]2(NC(=O)c2ccc(NC(=O)C(C)C)cc2)C(=O)O)ccc1OC(=O)c1cccs1
(Q) COc1cc([C@H]2[C@](NC(=O)c3ccc(NC(=O)C4CCCCC4)cc3)(C(=O)O)[C@@H](c3ccc(OC(=O)c4cccs4)c(OC)c3)[C@]2(NC(=O)c2ccc(NC(=O)C3CCCCC3)cc2)C(=O)O)ccc1OC(=O)c1cccs1
[ask] Lab note: record which item had the higher Efficacy, P or Q . Please identify the chosen entry by its label.
[reply] P

(P) COc1cc([C@H]2[C@](NC(=O)c3ccc(NC(=O)C4CC4)cc3)(C(=O)O)[C@@H](c3ccc(OC(=O)c4cccs4)c(OC)c3)[C@]2(NC(=O)c2ccc(NC(=O)C3CC3)cc2)C(=O)O)ccc1OC(=O)c1cccs1
(Q) COc1cc([C@H]2[C@](NC(=O)c3ccc(NC(=O)CCl)cc3)(C(=O)O)[C@@H](c3ccc(OC(=O)c4cccs4)c(OC)c3)[C@]2(NC(=O)c2ccc(NC(=O)CCl)cc2)C(=O)O)ccc1OC(=O)c1cccs1
[ask] Lab note: record which item had the higher Efficacy, P or Q . Please identify the chosen entry by its label.
[reply] P

====

target: Glucagon-like peptide 1 receptor (Rattus norvegicus, UniProt P32301); test: Agonist activity at rat GLP1R expressed in HEK293 cells assessed as stimulation of cAMP levels incubated for 6 hrs by multiple response element/cAMP response element (MRE/CRE)-driven reporter gene assay
pEC50: −log10 of the molar value.
MEASURE: pEC50

Worked set:
COMPOUND	pEC50
COc1cc([C@H]2[C@](NC(=O)c3ccc(NC(=O)OC(C)(C)C)cc3)(C(=O)O)[C@@H](c3ccc(OC(=O)C45CC6CC(CC(C6)C4)C5)c(OC)c3)[C@]2(NC(=O)c2ccc(NC(=O)OC(C)(C)C)cc2)C(=O)O)ccc1OC(=O)C12CC3CC(CC(C3)C1)C2	5.67
COc1cc([C@H]2[C@](NC(=O)c3ccc(NC(=O)C4CCCC4)cc3)(C(=O)O)[C@@H](c3ccc(OC(=O)c4cccs4)c(OC)c3)[C@@]2(NC(=O)c2ccc(NC(=O)C3CCCC3)cc2)C(=O)O)ccc1OC(=O)c1cccs1	6.18
COc1cc([C@H]2[C@](NC(=O)c3ccc(NC(=O)OC(C)(C)C)cc3)(C(=O)O)[C@@H](c3ccc(OC(=O)c4ccc(C)s4)c(OC)c3)[C@]2(NC(=O)c2ccc(NC(=O)OC(C)(C)C)cc2)C(=O)O)ccc1OC(=O)c1ccc(C)s1	4.72
CCOc1cc([C@H]2[C@](NC(=O)c3ccc(NC(=O)OC(C)(C)C)cc3)(C(=O)O)[C@@H](c3ccc(OC(=O)c4cccs4)c(OCC)c3)[C@]2(NC(=O)c2ccc(NC(=O)OC(C)(C)C)cc2)C(=O)O)ccc1OC(=O)c1cccs1	6.49
COc1cc([C@H]2[C@](NC(=O)c3ccc(NC(=O)C4CCC4)cc3)(C(=O)O)[C@@H](c3ccc(OC(=O)c4cccs4)c(OC)c3)[C@]2(NC(=O)c2ccc(NC(=O)C3CCC3)cc2)C(=O)O)ccc1OC(=O)c1cccs1	6.13
COc1cc([C@H]2[C@](NC(=O)c3ccc(NC(C)=O)cc3)(C(=O)O)[C@@H](c3ccc(OC(=O)c4cccs4)c(OC)c3)[C@]2(NC(=O)c2ccc(NC(C)=O)cc2)C(=O)O)ccc1OC(=O)c1cccs1	6.93
COc1cc([C@H]2[C@](NC(=O)c3ccc(NC(=O)C(C)C)cc3)(C(=O)O)[C@@H](c3ccc(OC(=O)c4cccs4)c(OC)c3)[C@]2(NC(=O)c2ccc(NC(=O)C(C)C)cc2)C(=O)O)ccc1OC(=O)c1cccs1	6.69

(1) COc1cc([C@H]2[C@](NC(=O)c3ccc(NC(=O)C4CC4)cc3)(C(=O)O)[C@@H](c3ccc(OC(=O)c4cccs4)c(OC)c3)[C@]2(NC(=O)c2ccc(NC(=O)C3CC3)cc2)C(=O)O)ccc1OC(=O)c1cccs1
(2) CCOC(=O)CNC(=O)Nc1ccc(C(=O)N[C@]2(C(=O)O)[C@H](c3ccc(OC(=O)c4cccs4)c(OC)c3)[C@@](NC(=O)c3ccc(NC(=O)NCC(=O)OCC)cc3)(C(=O)O)[C@@H]2c2ccc(OC(=O)c3cccs3)c(OC)c2)cc1
(3) COc1cc([C@H]2[C@](NC(=O)c3ccc(NC(=O)OC(C)(C)C)cc3)(C(=O)O)[C@@H](c3ccc(OC(=O)c4cccs4)c(OC)c3)[C@]2(NC(=O)c2ccc(NC(=O)OC(C)(C)C)cc2)C(=O)O)ccc1OC(=O)c1cccs1 (stereo in doubt)
(4) CNC(=S)Nc1ccc(C(=O)N[C@]2(C(=O)O)[C@H](c3ccc(OC(=O)c4cccs4)c(OC)c3)[C@@](NC(=O)c3ccc(NC(=S)NC)cc3)(C(=O)O)[C@@H]2c2ccc(OC(=O)c3cccs3)c(OC)c2)cc1
[ask] Ranking field: pEC50; order: falling. Please, when replying, give the labels in the order that was requested.
[reply] 1, 3, 2, 4
(1: 6.83, 3: 6.43, 2: 5.35, 4: 5.04)

====

biological target: Glucagon-like peptide 1 receptor (Rattus norvegicus) (UniProt P32301); assay: Agonist activity at rat GLP1R expressed in HEK293 cells assessed as stimulation of cAMP levels incubated for 6 hrs by multiple response element/cAMP response element (MRE/CRE)-driven reporter gene assay relative to 10 nM GLP1; type: functional, cell-based
MEASURE: Efficacy (%)

SMILES ENTRY	ASSAY VALUE
CCCC(=O)Oc1ccc([C@H]2[C@](NC(=O)c3ccc(NC(=O)OC(C)(C)C)cc3)(C(=O)O)[C@@H](c3ccc(OC(=O)CCC)c(OC)c3)[C@]2(NC(=O)c2ccc(NC(=O)OC(C)(C)C)cc2)C(=O)O)cc1OC	86
COc1cc([C@H]2[C@](NC(=O)c3ccc(NC(=O)OC(C)(C)C)cc3)(C(=O)O)[C@@H](c3ccc(OC(=O)C(C)C)c(OC)c3)[C@]2(NC(=O)c2ccc(NC(=O)OC(C)(C)C)cc2)C(=O)O)ccc1OC(=O)C(C)C	65
COc1cc([C@H]2[C@](NC(=O)c3ccc(NC(=O)OC(C)(C)C)cc3)(C(=O)O)[C@@H](c3ccc(OC(=O)c4ccc(C)s4)c(OC)c3)[C@]2(NC(=O)c2ccc(NC(=O)OC(C)(C)C)cc2)C(=O)O)ccc1OC(=O)c1ccc(C)s1	67

====

Biological target: Glucagon-like peptide 1 receptor (Rattus norvegicus)
Sequence (whole entry): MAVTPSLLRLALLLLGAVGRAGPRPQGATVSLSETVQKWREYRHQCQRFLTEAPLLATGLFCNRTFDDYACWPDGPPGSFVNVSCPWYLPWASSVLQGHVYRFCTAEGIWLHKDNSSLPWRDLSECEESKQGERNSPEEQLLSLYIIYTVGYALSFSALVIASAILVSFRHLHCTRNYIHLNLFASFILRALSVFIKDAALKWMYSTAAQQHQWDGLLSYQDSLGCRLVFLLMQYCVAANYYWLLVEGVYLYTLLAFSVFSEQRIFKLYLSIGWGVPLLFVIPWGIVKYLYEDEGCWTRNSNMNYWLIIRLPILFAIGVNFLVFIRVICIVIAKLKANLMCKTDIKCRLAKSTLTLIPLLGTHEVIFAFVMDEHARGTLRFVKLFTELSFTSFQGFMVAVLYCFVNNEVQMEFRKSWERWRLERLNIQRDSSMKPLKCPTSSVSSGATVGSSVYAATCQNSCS
Experiment: Agonist activity at rat GLP1R expressed in HEK293 cells assessed as stimulation of cAMP levels incubated for 6 hrs by multiple response element/cAMP response element (MRE/CRE)-driven reporter gene assay relative to 10 nM GLP1
Type: functional, cell-based
MEASURE: Efficacy (%)

SMILES ENTRY	Efficacy, %
COc1cc([C@H]2[C@](NC(=O)c3ccc(NC(=S)Nc4cccc5ccccc45)cc3)(C(=O)O)[C@@H](c3ccc(OC(=O)c4cccs4)c(OC)c3)[C@]2(NC(=O)c2ccc(NC(=S)Nc3cccc4ccccc34)cc2)C(=O)O)ccc1OC(=O)c1cccs1	29.8

(1) COc1cc([C@H]2[C@](NC(=O)c3ccc(NC(=O)C4CCC4)cc3)(C(=O)O)[C@@H](c3ccc(OC(=O)c4cccs4)c(OC)c3)[C@]2(NC(=O)c2ccc(NC(=O)C3CCC3)cc2)C(=O)O)ccc1OC(=O)c1cccs1
(2) COc1cc([C@H]2[C@](NC(=O)c3ccc(NC(=O)C4CCCC4)cc3)(C(=O)O)[C@@H](c3ccc(OC(=O)c4cccs4)c(OC)c3)[C@@]2(NC(=O)c2ccc(NC(=O)C3CCCC3)cc2)C(=O)O)ccc1OC(=O)c1cccs1
(3) COc1ccc([C@H]2[C@](NC(=O)c3ccc(NC(=O)OC(C)(C)C)cc3)(C(=O)O)[C@@H](c3ccc(OC)cc3)[C@]2(NC(=O)c2ccc(NC(=O)OC(C)(C)C)cc2)C(=O)O)cc1
[ask] Arrange the 3 entries by Efficacy so the values rise. Please, when replying, give the labels in the order that was requested.
[reply] 3, 2, 1
(3: 7.5%, 2: 35.9%, 1: 87.5%)
